Test system: HCT-116 colon
method_notes: NCI-60 one-dose screen, 48 h (100 = growth as untreated, 0 = no growth, -100 = all killed)
condition_parameters: 10 µM unless noted
Protocol: Growth inhibition of the HCT-116 human tumor cell line is measured as a screen for anti-cancer activity. Cells are grown in 96 well plates and exposed to the test compound for 48 hours. Compounds are tested at a single concentration, which is 10^-5 M for most compounds. The reported endpoint is percent growth (GI% or GIPRCNT), where numbers from 0 - 100% represent growth inhibition, and numbers from -100% - 0 represent cell death. For example, a value of 40 represents 60% growth inhibition. […]
About 83,000 compounds went through this panel and 20% of them were active in at least one assay; those are over-represented in the sample as a whole.
Criterion: growth meeting or surpassing 10%. Met: Criterion met. Not met: Criterion not met.

Study these solved cases before continuing.
> print(dat)
                                   molecule        group.label
1     Fc1ccc(Nc2nc3nonc3nc2Nc2ccc(I)cc2)cc1  Criterion not met
2  Clc1ccc2c(c1)N(c1ncnc3ccc(-c4cnc5[nH]ncc5c4)cc13)CC2      Criterion met
3  COc1cc(CNC(=O)CCCC/C=C/C(C)C)ccc1OCc1nnc(Nc2ccc([N+](=O)[O-])cc2)o1      Criterion met
4  O=C1Nc2ccccc2/C1=C\c1nc(-c2ccccc2)n2ccccc12      Criterion met
5  CC1=C(Nc2ccc(N3CCN(C)CC3)cc2)C(=O)c2cncnc2C1=O  Criterion not met

Data request: Can COc1cc2c(c(OC)c1OC)CCC(c1cccc(C(=O)Nc3cccc(Br)c3)c1)O2 (stereo unspecified) be said to have growth at or above 10%?
Data returned: Criterion met

Data request: Can COc1ccc(N2CCC(=O)NC2=S)cc1 be said to have growth at or above 10%?
Data returned: Criterion met

Data request: Can CCN(CC)c1nc(SCc2ccccc2Cl)ncc1C be said to have growth at or above 10%?
Data returned: Criterion met

Data request: Can N#Cc1cnc(NCCc2ccncc2)nc1-n1cnc2ccccc21 be said to have growth at or above 10%?
Data returned: Criterion met

Data request: Can c1ccc(CNc2c3ccccc3nc3ccccc23)cc1 be said to have growth at or above 10%?
Data returned: Criterion not met

Data request: Can CC1=C(CCC(C)N(C)Cc2ccc(OCCCN3CCCC3)cc2)C(C)(C)CCC1 (stereo unspecified) be said to have growth at or above 10%?
Data returned: Criterion met
